Entries and their IC50
Molecular target: kinase Axl (Homo sapiens, UniProt P30530)
Construct: purchased Carna 08-107
Sequence (P30530 473-894 limits assumed): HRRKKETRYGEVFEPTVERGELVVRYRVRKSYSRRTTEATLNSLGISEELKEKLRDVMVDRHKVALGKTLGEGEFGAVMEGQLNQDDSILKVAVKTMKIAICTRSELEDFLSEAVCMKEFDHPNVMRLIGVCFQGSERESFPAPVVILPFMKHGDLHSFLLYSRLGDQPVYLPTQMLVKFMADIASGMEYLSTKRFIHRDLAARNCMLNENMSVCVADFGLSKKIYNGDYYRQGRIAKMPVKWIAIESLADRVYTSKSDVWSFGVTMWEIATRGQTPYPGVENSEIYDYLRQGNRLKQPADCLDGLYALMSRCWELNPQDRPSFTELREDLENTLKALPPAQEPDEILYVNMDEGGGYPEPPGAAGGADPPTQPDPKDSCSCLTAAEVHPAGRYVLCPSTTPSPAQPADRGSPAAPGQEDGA
Experiment: Mobility shift assay, inhibitory activity against kinase Axl
Type: biochemical
Conditions: ATP at Km (81 μM), average of two independent experiments
Field format: number, assumed nM, no unit text.

Take a look at these entries with their results.
compound	IC50 [nM]
CC(C)n1cc(C(=O)Nc2cc(F)c(-c3cc(-c4cnn(C)c4)cnc3N)cc2F)c(=O)c(-c2ccc(F)cc2)c1C#N [Example 6]	2
C=C(C)c1cc(C(=O)Nc2ccc(-c3cc(-c4cnn(C5CCNCC5)c4)cnc3N)c(F)c2)c(=O)n(-c2ccc(F)cc2)c1C#N [Example 17]	1.8
N#Cc1c(-c2ccc(F)cc2)c(=O)c(C(=O)Nc2ccc(-c3cc(-c4cnn(C5CCNCC5)c4)cnc3N)c(F)c2)cn1C1CC1 [Example 11]	0.95
COc1cc2nccc(Oc3ccc(NC(=O)c4cc(Br)c(O)n(-c5ccc(F)cc5)c4=O)cc3F)c2cc1OC [Example 29B]	3.9
CCn1cc(-c2cnc(N)c(-c3ccc(NC(=O)c4cc(C)c(C#N)n(-c5ccc(F)cc5)c4=O)cc3F)c2)cn1 [Example 18]	12

Consider the record given below.
Prompt: Give reported IC50 value for CCn1cc(-c2cnc(N)c(-c3ccc(NC(=O)c4cn(C5CCC5)c(C#N)c(-c5ccc(F)cc5)c4=O)cc3F)c2)cn1 [Example 9]
Response: 4.6

* * *

Target: kinase c-MET (Homo sapiens)
Construct: purchased Carna 08-151
Sequence (P08581 956-1390 limits assumed): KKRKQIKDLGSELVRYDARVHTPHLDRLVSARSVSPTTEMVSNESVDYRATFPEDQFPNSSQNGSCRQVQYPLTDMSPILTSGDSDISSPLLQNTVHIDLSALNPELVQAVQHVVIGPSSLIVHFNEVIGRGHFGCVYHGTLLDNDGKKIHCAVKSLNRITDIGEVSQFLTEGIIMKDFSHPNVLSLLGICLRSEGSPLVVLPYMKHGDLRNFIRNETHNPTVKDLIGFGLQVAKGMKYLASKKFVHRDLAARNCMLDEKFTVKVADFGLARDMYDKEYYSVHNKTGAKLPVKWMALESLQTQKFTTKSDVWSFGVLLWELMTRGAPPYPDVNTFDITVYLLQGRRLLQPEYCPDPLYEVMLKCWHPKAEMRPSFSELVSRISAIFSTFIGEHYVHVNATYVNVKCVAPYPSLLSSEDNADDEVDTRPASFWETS
Test: Mobility shift assay, inhibitory activity against kinase c-MET
Format: biochemical
Settings: ATP at Km (35 μM), average of two independent experiments
Protocol: In this test, mobility shift assay was used to test the inhibitory activity of compounds when ATP concentrations correspond to the Km of the kinases. The concentration of test compound was 10-fold diluted from an initial concentration of 10 μM. The test result (IC50) was the average of two independent experiments. […] 5) The conversion rate was read by Caliper Reader (Perkin Elmer) and the inhibition rate was calculated as the average of two tests. […]
measureName: IC50 (nM)
Hi! Could you send only the number? It should be in nM, unit omitted.

Some compounds with recorded IC50:
chemicalString	readingUnit	endpointValue
CCn1cc(-c2cnc(N)c(-c3ccc(NC(=O)c4cn(C(C)C)c(C#N)c(-c5ccc(F)cc5)c4=O)cc3F)c2)cn1	nM	30
CC(C)n1cc(C(=O)Nc2cc(F)c(-c3cc(-c4cnn(C)c4)cnc3N)cc2F)c(=O)c(-c2ccc(F)cc2)c1C#N	nM	26
Cn1cc(-c2cnc(N)c(-c3ccc(NC(=O)c4cc(C5CC5)c(C#N)n(-c5ccc(F)cc5)c4=O)cc3F)c2)cn1	nM	20
CCn1cc(-c2cnc(N)c(-c3ccc(NC(=O)c4cn(C5CCC5)c(C#N)c(-c5ccc(F)cc5)c4=O)cc3F)c2)cn1	nM	70
CC(C)n1cc(C(=O)Nc2ccc(-c3cc(-c4cnn(C5CCOCC5)c4)cnc3N)c(F)c2)c(=O)c(-c2ccc(F)cc2)c1C#N	nM	38

Proceed to the following item.
Prompt: Annotate the compound `COc1cc2nccc(Oc3ccc(NC(=O)c4cc(C)c(CN)n(-c5ccc(F)cc5)c4=O)cc3F)c2cc1OC` with its measured IC50.
Response: 19

* * *

Target: tyrosine kinase Mer (Homo sapiens)
Construct: purchased Carna 08-108
Sequence (Q12866 528-999 limits assumed): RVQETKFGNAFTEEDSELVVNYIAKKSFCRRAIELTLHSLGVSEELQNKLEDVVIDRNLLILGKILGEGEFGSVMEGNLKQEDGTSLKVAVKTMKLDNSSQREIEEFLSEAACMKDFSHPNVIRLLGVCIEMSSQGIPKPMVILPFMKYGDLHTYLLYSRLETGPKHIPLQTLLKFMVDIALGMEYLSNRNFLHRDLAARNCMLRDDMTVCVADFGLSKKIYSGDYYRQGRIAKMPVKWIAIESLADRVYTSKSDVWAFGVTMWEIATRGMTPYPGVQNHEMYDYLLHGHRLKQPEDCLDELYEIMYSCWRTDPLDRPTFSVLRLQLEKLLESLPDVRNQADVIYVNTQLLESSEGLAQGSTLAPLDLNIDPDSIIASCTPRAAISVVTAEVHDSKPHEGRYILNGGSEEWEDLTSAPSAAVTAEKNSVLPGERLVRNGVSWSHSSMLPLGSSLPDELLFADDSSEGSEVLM
Assay: HTRF assay, inhibitory activity against tyrosine kinase Mer
Format: biochemical
Conditions: ATP at Km (30 μM), two duplicate wells
Hi! Could you tag entries with IC50 below 1 nM as met, and those at or above as not met? Much appreciated.

molecule	class
COc1cc2nccc(Oc3ccc(NC(=O)c4cn(C(C)C)c(=O)n(-c5ccc(F)cc5)c4=O)cc3F)c2cc1OC [RXDX-106, reference compound]	not met
CCn1cc(-c2cnc(N)c(-c3ccc(NC(=O)c4cn(C5CCC5)c(C#N)c(-c5ccc(F)cc5)c4=O)cc3F)c2)cn1	not met

Prompt: Below 1 nM on IC50? Entry `CC(C)n1cc(C(=O)Nc2ccc(-c3cc(-c4cnn(C5CCN(C)CC5)c4)cnc3N)c(F)c2)c(=O)c(-c2ccc(F)cc2)c1C#N`
Response: met

Prompt: IC50 under 1 nM? Item: `CCn1cc(-c2cnc(N)c(-c3cc(F)c(NC(=O)c4cn(C(C)C)c(C#N)c(-c5ccc(F)cc5)c4=O)cc3F)c2)cn1`
Response: met

Prompt: Determine if `COc1cc2nccc(Oc3ccc(NC(=O)c4cn(C(C)C)c(C#N)c(-c5ccc(F)cc5)c4=O)cc3F)c2cc1OC` shows IC50 strictly lower than 1 nM.
Response: not met

Prompt: Say whether its IC50 is strictly beneath 1 nM. Entry: `COc1ccc(-c2cnc(N)c(-c3ccc(NC(=O)c4cn(C(C)C)c(C#N)c(-c5ccc(F)cc5)c4=O)cc3F)c2)cc1OC`
Response: not met

Prompt: Is IC50 of `CCn1cc(-c2cnc(N)c(-c3ccc(NC(=O)c4cn(C5CC5)c(C#N)c(-c5ccc(F)cc5)c4=O)cc3F)c2)cn1` strictly below 1 nM?
Response: not met

Prompt: IC50 strictly < 1 nM for this molecule? `[2H]C([2H])([2H])n1cc(-c2cnc(N)c(-c3cc(F)c(NC(=O)c4cn(C(C)C)c(C#N)c(-c5ccc(F)cc5)c4=O)cc3F)c2)cn1`
Response: not met

Prompt: Input `CC(C)n1cc(C(=O)Nc2cc(F)c(-c3cc(-c4cnn(C)c4)cnc3N)cc2F)c(=O)c(-c2ccc(F)cc2)c1C#N` ; condition: IC50 strictly below 1 nM. Does it hold?
Response: not met

Prompt: # strict comparison: is reported IC50 < 1 nM? input = `CC(C)n1cc(C(=O)Nc2ccc(-c3cc(-c4cnn(C5CCNCC5)c4)cnc3N)c(F)c2)c(=O)c(-c2ccc(F)cc2)c1C#N`
Response: met
